Reference source: paper PMC10709440

Could you please report measured activation at 100 µM for the items listed next?
- system-tested: Drosophila OR85b (Drosophila melanogaster, UniProt Q9VHQ7)
- Construct: expressed in transfected cells
- Sequence (Q9VHQ7 whole entry): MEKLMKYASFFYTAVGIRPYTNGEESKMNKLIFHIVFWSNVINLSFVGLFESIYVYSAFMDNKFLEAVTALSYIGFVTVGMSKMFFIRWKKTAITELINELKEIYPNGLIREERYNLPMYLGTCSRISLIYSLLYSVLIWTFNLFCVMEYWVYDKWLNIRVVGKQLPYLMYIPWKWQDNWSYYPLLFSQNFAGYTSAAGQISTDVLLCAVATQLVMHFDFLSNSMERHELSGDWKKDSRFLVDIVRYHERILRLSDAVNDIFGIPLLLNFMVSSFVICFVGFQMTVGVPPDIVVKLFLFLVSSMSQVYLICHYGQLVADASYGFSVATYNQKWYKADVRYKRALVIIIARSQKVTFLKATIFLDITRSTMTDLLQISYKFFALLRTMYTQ
- Sequence (Q9VNB5 whole entry partner): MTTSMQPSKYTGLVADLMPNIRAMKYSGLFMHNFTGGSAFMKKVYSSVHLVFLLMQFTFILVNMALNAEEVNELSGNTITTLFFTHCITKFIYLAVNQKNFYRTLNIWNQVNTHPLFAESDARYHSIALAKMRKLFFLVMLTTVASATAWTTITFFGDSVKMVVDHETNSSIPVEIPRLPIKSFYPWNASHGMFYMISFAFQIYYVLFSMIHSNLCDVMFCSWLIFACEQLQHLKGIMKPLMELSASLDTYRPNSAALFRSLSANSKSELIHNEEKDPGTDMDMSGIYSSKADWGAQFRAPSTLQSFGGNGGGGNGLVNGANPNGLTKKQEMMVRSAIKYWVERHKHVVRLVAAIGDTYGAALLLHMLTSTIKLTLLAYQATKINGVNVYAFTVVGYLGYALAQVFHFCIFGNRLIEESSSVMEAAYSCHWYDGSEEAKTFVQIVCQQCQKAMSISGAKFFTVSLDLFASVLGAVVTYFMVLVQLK
- assay-remarks: Calcium ion fluorescence (GCaMP6) assay, OR85b stable HEK293 cell line
- Assay type: cell-based
- experimental-parameters: HEK293, read-out: OR85b response (VUAA1-normalized response)
Record the value in %, omitting the unit from your answer.

# input compound: CCCCCC(C)O (stereo not shown) ; wanted: its activation at 100 µM
32

Proceed to CCCCCC(C)=O
55

// same read-out, input: CC1=CC[C@@H](C(C)(C)O)CC1
0

Proceed to CCCCCCCO
0

CCOC(=O)CC [ethyl propionate] , same question.
9

Also check CCCCCC(=O)CC
9

And CC1=CCC2CC1C2(C)C (stereo not shown) ?
0
